For each entry below, report its solubility at 45 min value.
Test: Maximum solubility in 5% Captisol by UV-Vis spectroscopy
Format: physicochemical
Conditions: aqueous with cosolvent or surfactant or cyclodextrin, thermodynamic from solid, absorption at 290 nm, triplicate, averaged

INSERT INTO assay_data (molecule, endpoint_result) VALUES
  ('C[C@@](O)(C(F)F)[C@H](NC(=O)c1ccc(C#CC#CC2CC2)cc1)C(=O)NO [LPC-233, reference compound]', '~20 mg/mL');

Now look at this one.
Prompt line: Entry under review: "C[C@@](O)(C(F)F)[C@H](NC(=O)c1ccc(C#CC#CC2CC2)cc1)C(=O)NOP(=O)([O-])[O-].[Na+].[Na+]" . Reported solubility at 45 min?
Response line: ~260 mg/mL
